Cited source for all entries: patent US10800752B2

Reported % Measurement value (conversion rate to 2-acetylnaphtho[2,3-b]furan-4,9-dione) values are given for each entry in this list.
assay: Evaluation of a conversion rate to 2-acetylnaphtho[2,3-b]furan-4,9-dione in pH 7.4 phosphate buffer solution; type: physicochemical; settings: Phosphate buffer solution (pH 7.4), 1 umol/L, 37° C., incubation time 120 min

INSERT INTO assay_data (compound, result) VALUES
  ('COC(=O)[C@@H](N)CCNC(=O)Oc1c2ccccc2c(OC(=O)NCC[C@H](N)C(=O)OC)c2oc(C(C)=O)cc12 [Example 108]', '44%'),
  ('CC(=O)c1cc2c(OC(=O)NCCCNCC(F)(F)F)c3ccccc3c(OC(=O)NCCCNCC(F)(F)F)c2o1.Cl.Cl', '41%'),
  ('CCC(NCCNC(=O)Oc1c2ccccc2c(OC(=O)NCCNC(CC)C(=O)O)c2oc(C(C)=O)cc12)C(=O)O.Cl.Cl (stereo not shown)', '55%'),
  ('CC(=O)c1cc2c(OC(=O)NCCNCCCC(=O)O)c3ccccc3c(OC(=O)NCCNCCCC(=O)O)c2o1.Cl.Cl', '54%'),
  ('CC(=O)c1cc2c(OC(=O)NC3CNC3)c3ccccc3c(OC(=O)NC3CNC3)c2o1.Cl.Cl', '58%'),
  ('CC(=O)c1cc2c(O)c3ccccc3c(OC(=O)NCCCNCCOC(N)=O)c2o1.Cl', '26%');

Note: attention shifts to another entry.
Query :: Which value of % Measurement value (conversion rate to 2-acetylnaphtho[2,3-b]furan-4,9-dione) has been reported for `COC(=O)NCCNCCNC(=O)Oc1c2ccccc2c(O)c2cc(C(C)=O)oc12.Cl` in the records?
Result :: 58%
